tested.on: T1, B7H3 (human, UniProt Q5ZPR3 29-534)
T1 sequence (looked up): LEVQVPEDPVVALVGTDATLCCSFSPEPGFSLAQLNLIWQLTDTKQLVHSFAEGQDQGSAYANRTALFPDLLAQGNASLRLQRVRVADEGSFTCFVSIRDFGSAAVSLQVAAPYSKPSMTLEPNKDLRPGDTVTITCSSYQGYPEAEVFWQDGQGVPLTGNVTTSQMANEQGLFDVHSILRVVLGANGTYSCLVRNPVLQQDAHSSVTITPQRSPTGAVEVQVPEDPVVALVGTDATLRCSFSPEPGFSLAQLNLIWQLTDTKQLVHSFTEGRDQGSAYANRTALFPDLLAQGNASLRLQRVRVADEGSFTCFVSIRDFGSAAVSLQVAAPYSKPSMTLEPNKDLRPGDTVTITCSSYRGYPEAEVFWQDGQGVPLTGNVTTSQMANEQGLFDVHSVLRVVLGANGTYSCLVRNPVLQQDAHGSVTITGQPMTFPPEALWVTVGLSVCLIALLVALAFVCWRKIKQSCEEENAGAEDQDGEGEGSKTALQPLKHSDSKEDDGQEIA
test.name: cell-based or functional assay
Items are presented alongside their recorded Emax (%), ADC direct killing, NCI-H1650 (High), 3D.
Express the reported value numerically, then name its unit.

Worked examples follow.
Need Emax (%), ADC direct killing, NCI-H1650 (High), 3D of ADC4-B (antibody, human IgG1, kappa, V domains shown, conjugator-linker-payload on cysteine thiols after TCEP reduction (DAR8); residues not numbered; structure given only as a drawing) VH: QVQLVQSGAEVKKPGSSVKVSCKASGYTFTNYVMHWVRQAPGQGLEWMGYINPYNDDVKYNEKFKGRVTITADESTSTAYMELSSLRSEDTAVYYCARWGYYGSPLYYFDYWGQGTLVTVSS VL: EIVLTQSPATLSLSPGERATLSCRASSRLIYMHWYQQKPGQAPRPLIYATSNLASGIPARFSGSGSGTDFTLTISSLEPEDFAVYYCQQWNSNPPTFGQGTKVEIKR , thanks.
75.3%

Which Emax (%), ADC direct killing, NCI-H1650 (High), 3D is reported for this binder? ADC4-9 (antibody, human IgG1, kappa, V domains shown, conjugator-linker-payload on cysteine thiols after TCEP reduction (DAR8), maleimide hydrolysed; residues not numbered; structure given only as a drawing) VH: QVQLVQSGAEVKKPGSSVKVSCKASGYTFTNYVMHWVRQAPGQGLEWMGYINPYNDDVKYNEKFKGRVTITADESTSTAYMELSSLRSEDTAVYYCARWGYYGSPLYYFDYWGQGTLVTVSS VL: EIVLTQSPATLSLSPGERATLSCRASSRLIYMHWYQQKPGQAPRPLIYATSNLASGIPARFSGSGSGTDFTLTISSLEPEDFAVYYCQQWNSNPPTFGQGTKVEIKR
81.4%

Look up Emax (%), ADC direct killing, NCI-H1650 (High), 3D for this binder: ADC4-8 (antibody, human IgG1, kappa, V domains shown, conjugator-linker-payload on cysteine thiols after TCEP reduction (DAR8), maleimide hydrolysed; residues not numbered; structure given only as a drawing) VH: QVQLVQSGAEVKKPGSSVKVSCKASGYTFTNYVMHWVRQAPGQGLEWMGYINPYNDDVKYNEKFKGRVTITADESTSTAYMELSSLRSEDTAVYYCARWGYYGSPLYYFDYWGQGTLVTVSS VL: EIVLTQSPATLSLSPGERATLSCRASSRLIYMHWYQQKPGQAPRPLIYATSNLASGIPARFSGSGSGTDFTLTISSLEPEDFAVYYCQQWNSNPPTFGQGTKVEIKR
79.5%

As a next step, examine the binder that follows.
// query Emax (%), ADC direct killing, NCI-H1650 (High), 3D value for entry ADC4-10 (antibody, human IgG1, kappa, V domains shown, conjugator-linker-payload on cysteine thiols after TCEP reduction (DAR8), maleimide hydrolysed; residues not numbered; structure given only as a drawing) VH: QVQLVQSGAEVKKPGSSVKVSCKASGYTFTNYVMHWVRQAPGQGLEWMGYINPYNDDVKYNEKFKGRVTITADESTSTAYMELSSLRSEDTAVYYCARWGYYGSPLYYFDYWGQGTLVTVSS VL: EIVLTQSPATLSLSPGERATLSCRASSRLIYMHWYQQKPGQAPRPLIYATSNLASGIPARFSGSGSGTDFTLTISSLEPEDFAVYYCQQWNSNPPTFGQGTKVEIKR
80%
